experimental-system: hFP (Homo sapiens)
Construct: expressed in transfected cells; host or cells: HEK-293(EBNA) cells
Sequence (P43088 whole entry): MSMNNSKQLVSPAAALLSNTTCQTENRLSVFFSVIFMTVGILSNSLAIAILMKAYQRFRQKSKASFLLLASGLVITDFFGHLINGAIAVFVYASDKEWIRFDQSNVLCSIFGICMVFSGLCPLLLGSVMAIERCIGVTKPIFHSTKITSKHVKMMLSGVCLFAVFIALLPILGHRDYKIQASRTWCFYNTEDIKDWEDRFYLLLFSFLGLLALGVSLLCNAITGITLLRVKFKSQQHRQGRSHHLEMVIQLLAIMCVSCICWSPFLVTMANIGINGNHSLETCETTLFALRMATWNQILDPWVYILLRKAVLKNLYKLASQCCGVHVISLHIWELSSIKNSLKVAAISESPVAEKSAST
protocol-notes: FLIPR calcium signal, HEK-293(EBNA) cells
Type: cell-based
stated-conditions: Table 1, second part; quantity not given, values match functional data (EC50) of first part; read-out: Other Receptors hFP
pEC50: −log10 of the molar value.
readout: pEC50

COC(=O)CCC/C=C\C[C@@H]1[C@@H](COc2cc(Cl)cc(Cl)c2)[C@H](O)C[C@H]1Cl [Example 11]; < 5.00

====

Tested on: normotensive dogs
protocol-notes: Ocular surface hyperemia (OSH) in normotensive dogs
Type: in vivo, dog
stated-conditions: 0.1%, dosing once daily for 5 days
# time of maximum OSH score annotations
readout: time of maximum OSH score (h)

O=C(O)CCC/C=C\C[C@@H]1[C@@H](COc2cccc3ccccc23)[C@H](O)C[C@H]1Cl; 54
Cc1cc(C)cc(OC[C@@H]2[C@@H](C/C=C\CCCC(=O)O)[C@H](Cl)C[C@H]2O)c1; 28
O=C(O)CCC/C=C\C[C@@H]1[C@@H](COc2cc(C(F)(F)F)cc(C(F)(F)F)c2)[C@H](O)C[C@H]1Cl; 52
CC(C)OC(=O)CCC/C=C\C[C@@H]1[C@@H](COc2ccc(CO)cc2)[C@H](O)C[C@H]1Cl; 30
O=C(O)CCC/C=C\C[C@@H]1[C@@H](COc2cc(Cl)cc(Cl)c2)[C@H](O)C[C@H]1Cl; 6
O=C(O)CCC/C=C\C[C@@H]1[C@@H](COc2ccc(CO)cc2)[C@H](O)C[C@H]1Cl; 98
Cc1cc(C)cc(OC[C@@H]2[C@@H](C/C=C\CCCC(=O)OC(C)C)[C@H](Cl)C[C@H]2O)c1; 74
O=C(O)CCC/C=C\C[C@@H]1[C@@H](COc2cccc(C(F)(F)F)c2)[C@H](O)C[C@H]1Cl; 6
CC(C)OC(=O)CCC/C=C\C[C@@H]1[C@@H](COc2cccc(C(F)(F)F)c2)[C@H](O)C[C@H]1Cl; 50

====

experimental-system: hEP2 (Homo sapiens, UniProt P43116)
Sequence (P43116 whole entry): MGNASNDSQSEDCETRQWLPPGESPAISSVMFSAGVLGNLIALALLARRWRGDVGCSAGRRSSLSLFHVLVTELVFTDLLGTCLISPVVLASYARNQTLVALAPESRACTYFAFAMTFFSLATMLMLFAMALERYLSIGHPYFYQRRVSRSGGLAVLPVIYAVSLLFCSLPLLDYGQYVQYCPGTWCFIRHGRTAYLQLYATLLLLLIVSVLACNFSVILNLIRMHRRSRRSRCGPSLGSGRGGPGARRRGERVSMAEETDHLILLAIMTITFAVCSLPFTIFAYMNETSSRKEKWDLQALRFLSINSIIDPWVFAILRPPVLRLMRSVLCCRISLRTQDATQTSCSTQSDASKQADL
protocol-notes: Competition binding, [3H]PGE2, HEK 293 cells stably expressing human EP2 receptors
Parameters: expressed in transfected cells; host or cells: HEK 293 cells (membranes or whole cells)
stated-conditions: Table 1, first part; triplicate; read-out: binding data (Ki) hEP2
pKi: −log10 of the molar value.
readout: pKi

O=C(O)CCCCCC[C@@H]1[C@@H](COc2cc(Cl)cc(Cl)c2)[C@H](O)C[C@H]1Cl [Example 14]; 7.12
O=C(O)CCCCCC[C@H]1C(=O)CC[C@@H]1COc1ccccc1 [Example 6]; 5.20
O=C(O)CCC/C=C\C[C@@H]1[C@@H](COc2ccccc2)[C@H](O)C[C@H]1Cl [Example 8]; 5.90
O=C(O)CCCCCC[C@@H]1[C@@H](COc2ccccc2)[C@H](O)C[C@H]1Cl [Example 10]; 5.77
O=C(O)CCC/C=C\C[C@@H]1[C@@H](COc2cc(Cl)cc(Cl)c2)[C@H](O)C[C@H]1Cl [Example 12]; 7.92

====

# EC50 annotations
experimental-system: hEP2/Gqs5 (Homo sapiens, UniProt P43116)
Construct: expressed in transfected cells; host or cells: HEK-293(EBNA) cells
protocol-notes: FLIPR calcium signal, HEK-293(EBNA) cells
Assay type: cell-based
stated-conditions: Table 1, second part; read-out: hEP2 flipr EC50
readout: EC50

COC(=O)CCC/C=C\C[C@@H]1[C@@H](COc2ccccc2)[C@H](O)C[C@H]1Cl; > 10 µM
O=C(O)CCC/C=C\C[C@@H]1[C@@H](COc2cc(Cl)cc(Cl)c2)[C@H](O)C[C@H]1Cl; 0.0008 µM
COC(=O)CCCCCC[C@H]1C(=O)CC[C@@H]1COc1ccccc1; > 10 µM
COC(=O)CCCCCC[C@@H]1[C@@H](COc2ccccc2)[C@H](O)C[C@H]1Cl; > 10 µM
COC(=O)CCC/C=C\C[C@H]1C(=O)C=C[C@@H]1COc1ccccc1; > 10 µM
O=Cc1cccc(OC[C@@H]2[C@@H](C/C=C\CCCC(=O)O)[C@H](Cl)C[C@H]2O)c1; 0.192 µM

====

# Ki annotations
experimental-system: hEP4 (Homo sapiens, UniProt P35408)
Construct: expressed in transfected cells; host or cells: HEK-293 cells (plasma membrane fraction)
Sequence (P35408 whole entry): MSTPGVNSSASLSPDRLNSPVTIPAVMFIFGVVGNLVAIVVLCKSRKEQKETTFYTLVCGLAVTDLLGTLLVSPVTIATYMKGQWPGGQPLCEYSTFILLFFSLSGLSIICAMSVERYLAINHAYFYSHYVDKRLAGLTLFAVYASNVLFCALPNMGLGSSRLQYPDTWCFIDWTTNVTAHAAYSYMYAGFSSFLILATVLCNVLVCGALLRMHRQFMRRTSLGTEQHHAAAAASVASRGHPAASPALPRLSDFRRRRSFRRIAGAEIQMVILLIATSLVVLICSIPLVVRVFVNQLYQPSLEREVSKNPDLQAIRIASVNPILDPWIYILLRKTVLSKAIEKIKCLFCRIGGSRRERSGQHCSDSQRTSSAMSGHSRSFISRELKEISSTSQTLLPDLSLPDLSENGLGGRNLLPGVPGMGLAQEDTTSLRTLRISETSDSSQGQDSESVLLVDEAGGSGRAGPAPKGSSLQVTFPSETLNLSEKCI
protocol-notes: Radioligand binding, [3H]PGE2, HEK-293 cells stably expressing EP4 receptors
stated-conditions: Table 1, first part; triplicate; read-out: binding data (Ki) hEP4
readout: Ki

O=C(O)CCC/C=C\C[C@@H]1[C@@H](COc2cc(Cl)cc(Cl)c2)[C@H](O)C[C@H]1Cl [Example 12]; 0.94 µM
O=C(O)CCC/C=C\C[C@@H]1[C@@H](COc2ccccc2)[C@H](O)C[C@H]1Cl [Example 8]; > 10 µM
O=C(O)CCCCCC[C@@H]1[C@@H](COc2cc(Cl)cc(Cl)c2)[C@H](O)C[C@H]1Cl [Example 14]; 3.04 µM
O=C(O)CCCCCC[C@@H]1[C@@H](COc2ccccc2)[C@H](O)C[C@H]1Cl [Example 10]; > 10 µM
O=C(O)CCCCCC[C@H]1C(=O)CC[C@@H]1COc1ccccc1 [Example 6]; 2.65 µM

====

# maximum OSH score annotations
Tested on: normotensive dogs
protocol-notes: Ocular surface hyperemia (OSH) in normotensive dogs
Format: in vivo, dog
Design: scale not given here
stated-conditions: 0.1%, dosing once daily for 5 days
readout: maximum OSH score

O=C(O)CCC/C=C\C[C@@H]1[C@@H](COc2cc(C(F)(F)F)cc(C(F)(F)F)c2)[C@H](O)C[C@H]1Cl; 0.9
O=C(O)CCC/C=C\C[C@@H]1[C@@H](COc2cccc3ccccc23)[C@H](O)C[C@H]1Cl; 0.8
O=C(O)CCC/C=C\C[C@@H]1[C@@H](COc2cc(Cl)cc(Cl)c2)[C@H](O)C[C@H]1Cl; 1.3
O=C(O)CCC/C=C\C[C@@H]1[C@@H](COc2ccc(CO)cc2)[C@H](O)C[C@H]1Cl; 0.6
Cc1cc(C)cc(OC[C@@H]2[C@@H](C/C=C\CCCC(=O)O)[C@H](Cl)C[C@H]2O)c1; 1.2
O=C(O)CCC/C=C\C[C@@H]1[C@@H](COc2cccc(C(F)(F)F)c2)[C@H](O)C[C@H]1Cl; 0.5
Cc1cc(C)cc(OC[C@@H]2[C@@H](C/C=C\CCCC(=O)OC(C)C)[C@H](Cl)C[C@H]2O)c1; 0.9
CC(C)OC(=O)CCC/C=C\C[C@@H]1[C@@H](COc2ccc(CO)cc2)[C@H](O)C[C@H]1Cl; 0.6
CC(C)OC(=O)CCC/C=C\C[C@@H]1[C@@H](COc2cccc(C(F)(F)F)c2)[C@H](O)C[C@H]1Cl; 0.6

====

experimental-system: hDP/Gqs5 (Homo sapiens, UniProt Q13258)
Construct: expressed in transfected cells; host or cells: HEK-293(EBNA) cells
Sequence (Q13258 whole entry): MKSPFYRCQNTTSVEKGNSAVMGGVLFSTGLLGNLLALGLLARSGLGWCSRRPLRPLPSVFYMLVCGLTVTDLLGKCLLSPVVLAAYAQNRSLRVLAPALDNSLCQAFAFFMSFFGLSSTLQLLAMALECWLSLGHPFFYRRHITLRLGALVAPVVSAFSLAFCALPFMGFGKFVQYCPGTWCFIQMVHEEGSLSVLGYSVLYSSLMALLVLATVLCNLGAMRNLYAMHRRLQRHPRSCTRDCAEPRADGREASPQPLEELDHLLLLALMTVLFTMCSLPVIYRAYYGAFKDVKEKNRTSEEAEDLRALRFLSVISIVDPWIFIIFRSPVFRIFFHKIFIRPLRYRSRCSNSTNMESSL
protocol-notes: FLIPR calcium signal, HEK-293(EBNA) cells
Assay type: cell-based
stated-conditions: Table 1, second part; quantity not given, values match functional data (EC50) of first part; read-out: Other Receptors hDP
Protocol: HEK-293(EBNA) cells, stably expressing one type or subtype of recombinant human prostaglandin receptors (prostaglandin receptors expressed: hDP/Gqs5; hEP1; hEP2/Gqs5; hEP3A/Gqi5; hEP4/Gqs5; hFP; hIP; hTP), were cultured in 100 mm culture dishes in high-glucose DMEM medium containing 10% fetal bovine serum, 2 mM 1-glutamine, 250 μg/ml geneticin (G418) and 200 μg/ml hygromycin B as selection markers, and 100 units/ml penicillin G, 100 μg/ml streptomycin and 0.25 μg/ml amphotericin B. […]
pEC50: −log10 of the molar value.
readout: pEC50

O=C(O)CCCCCC[C@@H]1[C@@H](COc2cc(Cl)cc(Cl)c2)[C@H](O)C[C@H]1Cl [Example 14]; < 5.00
O=C(O)CCCCCC[C@@H]1[C@@H](COc2ccccc2)[C@H](O)C[C@H]1Cl [Example 10]; < 5.00
O=C(O)CCCCCC[C@H]1C(=O)CC[C@@H]1COc1ccccc1 [Example 6]; < 5.00
COC(=O)CCC/C=C\C[C@@H]1[C@@H](COc2cc(Cl)cc(Cl)c2)[C@H](O)C[C@H]1Cl [Example 11]; < 5.00
COC(=O)CCCCCC[C@@H]1[C@@H](COc2cc(Cl)cc(Cl)c2)[C@H](O)C[C@H]1Cl [Example 13]; < 5.00
O=C(O)CCC/C=C\C[C@@H]1[C@@H](COc2cc(Cl)cc(Cl)c2)[C@H](O)C[C@H]1Cl [Example 12]; < 5.00
O=C(O)CCC/C=C\C[C@@H]1[C@@H](COc2ccccc2)[C@H](O)C[C@H]1Cl [Example 8]; < 5.00
